// binding score lookup, one value per entry
- experimental.target: Circumsporozoite protein (CSP) (Plasmodium falciparum (isolate 3D7), UniProt Q7K740)
- Sequence (Q7K740 19-374): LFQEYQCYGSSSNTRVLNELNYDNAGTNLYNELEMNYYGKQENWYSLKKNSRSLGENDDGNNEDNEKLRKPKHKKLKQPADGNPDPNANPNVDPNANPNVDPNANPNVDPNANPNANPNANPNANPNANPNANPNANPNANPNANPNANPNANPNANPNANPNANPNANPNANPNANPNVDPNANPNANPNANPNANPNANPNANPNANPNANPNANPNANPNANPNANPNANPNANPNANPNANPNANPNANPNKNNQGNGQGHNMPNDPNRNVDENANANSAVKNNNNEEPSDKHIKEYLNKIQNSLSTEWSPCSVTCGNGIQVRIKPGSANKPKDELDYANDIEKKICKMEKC
- assay.overview: AVEXIS screen signal:noise (double-corrected)
readout.kind: binding score

ADP137 (protein, bait human Fc-tagged dimer) MAVVGNPRSWSCQWLPILILLLGTGHGPGVEGVTHYKAGDPVILYVNKVGPYHNPQETYHYYQLPVCCPEKIRHKSLSLGEVLDGDRMAESLYEIRFRENVEKRILCHMQLSSAQVEQLRQAIEELYYFEFVVDDLPIRGFVGYMEESGFLPHSHKIGLWTHLDFHLEFHGDRIIFANVSVRDVKPHSLDGLRPDEFLGLTHTYSVRWSETSVERRSDRRRGDDGGFFPRTLEIHWLS
0.831
ADP389 (protein, bait human Fc-tagged dimer) PSSLSQEQSEQDAIYQNLTQLKAAVGELSEKSKLQEIYQELTQLKAAVGELPEKSKLQEIYQELTRLKAAVGELPEKSKLQEIYQELTRLKAAVGELPEKSKLQEIYQELTRLKAAVGELPEKSKLQEIYQELTELKAAVGELPEKSKLQEIYQELTQLKAAVGELPDQSKQQQIYQELTDLKTAFERLCRHCPKDWTFFQGNCYFMSNSQRNWHDSVTACQEVRAQLVVIKTAEEQNFLQLQTSRSNRFSWMGLSDLNQEGTWQWVDGSPLSPSFQRYWNSGEPNNSGNEDCAEFSGSGWNDNRCDVDNYWICKKPAACFRDE
0.72

Sourced from paper PMC11098746
